Target: SARS-COV-2 RBD extracellular domain expressed with a C-terminal mouse IgG2a Fc (SARS-CoV-2)
Assay: Biacore SPR, mAb captured on anti-hFc, 25 C
// t½ lookup, one value per entry
Report as a plain number; the unit h is understood.

Example entries and their recorded answers appear below.
binder	property.label	result.number
mAb15157 (antibody, V domains shown) VH: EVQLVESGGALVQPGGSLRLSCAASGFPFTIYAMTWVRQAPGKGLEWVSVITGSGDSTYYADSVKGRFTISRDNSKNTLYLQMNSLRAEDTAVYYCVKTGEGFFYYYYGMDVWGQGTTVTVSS VL: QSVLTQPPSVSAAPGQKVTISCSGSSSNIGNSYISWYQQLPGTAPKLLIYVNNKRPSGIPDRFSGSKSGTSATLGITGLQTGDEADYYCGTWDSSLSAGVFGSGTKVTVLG	t½	2.89
mAb15164 (antibody, V domains shown) VH: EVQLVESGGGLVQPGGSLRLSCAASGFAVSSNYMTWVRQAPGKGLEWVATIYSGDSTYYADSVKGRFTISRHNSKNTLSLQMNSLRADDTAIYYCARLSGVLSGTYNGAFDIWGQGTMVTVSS VL: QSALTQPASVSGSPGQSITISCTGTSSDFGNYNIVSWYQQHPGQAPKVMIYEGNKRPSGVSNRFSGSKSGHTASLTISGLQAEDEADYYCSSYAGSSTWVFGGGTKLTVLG	t½	9.09
mAb14257 (antibody, V domains shown) VH: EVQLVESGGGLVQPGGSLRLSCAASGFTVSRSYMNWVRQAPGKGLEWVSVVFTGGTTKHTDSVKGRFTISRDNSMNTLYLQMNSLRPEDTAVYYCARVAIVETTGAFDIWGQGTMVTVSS VL: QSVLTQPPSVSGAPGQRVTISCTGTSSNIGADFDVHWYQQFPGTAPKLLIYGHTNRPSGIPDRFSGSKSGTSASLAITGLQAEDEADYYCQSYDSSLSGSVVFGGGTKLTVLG	t½	0.757

Qu. Which t½ value is on record for mAb14281 (antibody, V domains shown) VH: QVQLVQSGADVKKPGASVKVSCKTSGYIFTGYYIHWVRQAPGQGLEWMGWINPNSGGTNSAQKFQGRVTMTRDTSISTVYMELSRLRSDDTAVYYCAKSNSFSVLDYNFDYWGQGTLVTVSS VL: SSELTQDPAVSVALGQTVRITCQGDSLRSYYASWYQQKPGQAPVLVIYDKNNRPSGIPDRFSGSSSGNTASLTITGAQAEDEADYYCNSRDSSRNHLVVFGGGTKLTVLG ?
Ans. 0.905

Qu. Look up t½ for this binder: mAb15166 (antibody, V domains shown) VH: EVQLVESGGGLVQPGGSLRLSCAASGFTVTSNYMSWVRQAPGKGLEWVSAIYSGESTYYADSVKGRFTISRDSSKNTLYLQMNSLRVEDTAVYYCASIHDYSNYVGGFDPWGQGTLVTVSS VL: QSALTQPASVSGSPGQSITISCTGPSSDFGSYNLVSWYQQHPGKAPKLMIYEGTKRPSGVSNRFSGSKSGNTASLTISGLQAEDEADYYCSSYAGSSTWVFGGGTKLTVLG
Ans. 11.9
